- assay_protocol: MTT: Cell Damaging and Protecting Effect Test
- Format: cell-based, rabbit (male Japanese White)
- conditions_used: rabbit, gastric corpus mucosa cells, final concentration 10^-4 M, smaller value is better, read-out: MTT cell damaging rate
Assign labels as follows, please: y for cytotoxicity at 4 h, 100 µM below -30%; n for cytotoxicity at 4 h, 100 µM equal to or exceeding -30%.

Worked examples, 4 compounds total:
cytotoxicity at 4 h, 100 µM strictly < -30% for this compound? "COc1cc(C(=O)N2CCN(Cc3ccccc3)CC2)cc(OC)c1OC/C=C(\C)CCC=C(C)C"
y

cytotoxicity at 4 h, 100 µM strictly < -30% for this compound? "CC(C)Cc1cc(C(=O)N2CCN(c3ccccn3)CC2)ccc1OCc1ccc(F)cc1"
y

cytotoxicity at 4 h, 100 µM strictly < -30% for this compound? "CC(C)Cc1ccc(C(=O)N2CCN(C(c3ccccc3)c3ccccc3)CC2)cc1O"
n

cytotoxicity at 4 h, 100 µM strictly < -30% for this compound? "CC(C)Cc1cc(C(=O)N2CCN(Cc3ccccc3)CC2)ccc1OCc1ccccc1"
y

Others:
cytotoxicity at 4 h, 100 µM strictly < -30% for this compound? "CC(C)=CCC/C(C)=C/COc1ccc(C(=O)N2CCN(CCOC(=O)c3ccncc3)CC2)cc1"
n

cytotoxicity at 4 h, 100 µM strictly < -30% for this compound? "CC(C)=CCOc1cc(C(=O)N2CCN(Cc3ccccc3)CC2)cc(OCC=C(C)C)c1OCC=C(C)C"
n

cytotoxicity at 4 h, 100 µM strictly < -30% for this compound? "CC(C)=CCC/C(C)=C/COc1ccc(C(=O)N2CCN(Cc3ccc4c(c3)OCO4)CC2)cc1"
n

cytotoxicity at 4 h, 100 µM strictly < -30% for this compound? "CC(C)=CCC/C(C)=C/COc1ccc(C(=O)N2CCN(CCNC(=O)c3ccc4c(c3)OCO4)CC2)cc1"
n

cytotoxicity at 4 h, 100 µM strictly < -30% for this compound? "COc1cc(C(=O)N2CCN(Cc3ccccc3)CC2)cc(OC/C=C(\C)CCC=C(C)C)c1OC"
y

cytotoxicity at 4 h, 100 µM strictly < -30% for this compound? "CC(C)Cc1cc(C(=O)N2CCN(C(=O)NC(C)C)CC2)ccc1OCc1ccc(F)cc1"
y

cytotoxicity at 4 h, 100 µM strictly < -30% for this compound? "CC(C)Cc1cccc(C(=O)N2CCN(Cc3ccc4c(c3)OCO4)CC2)c1O"
n
